Molecular target: the molecule itself
Test: crystal structure; free protein crystals, protein at 2-14 mg/mL, diffraction data at 100 K; dimer of the protein with itself

# protein, binding result
measured = [
    ("C.Esp1396I wild type (RM controller protein) (natural protein, controller (C) protein C.Esp1396I of the Esp1396I restriction-modification system; Residues may be left at the N-terminus after thrombin cleavage; also called native protein; WT; not shown: His6, N-terminal, cleaved) MESFLLSKVSFVIKKIRLEKGMTQEDLAYKSNLDRTYISGIERNSRNLTIKSLELIMKGLEVSDVVFFEMLIKEILKHD", "binds"),
    ("C.Esp1396I S52A mutant (natural protein, controller (C) protein C.Esp1396I with S52A; Gene synthesised by GenScript; not shown: His6, N-terminal, cleaved) MESFLLSKVSFVIKKIRLEKGMTQEDLAYKSNLDRTYISGIERNSRNLTIKALELIMKGLEVSDVVFFEMLIKEILKHD", "binds"),
    ("C.Esp1396I Y37A mutant (natural protein, controller (C) protein C.Esp1396I with Y37A; Gene synthesised by GenScript; not shown: His6, N-terminal, cleaved) MESFLLSKVSFVIKKIRLEKGMTQEDLAYKSNLDRTAISGIERNSRNLTIKSLELIMKGLEVSDVVFFEMLIKEILKHD", "binds"),
]
